# Test system: SF-295 CNS
# Assay explanation: NCI tumour cell line growth inhibition, 48 h; in the data active = GI50 below about 0.43 µM; inactive = the rest
Pick one: active, inactive

Ask: Record lookup: outcome of this test for Cn1cc(C2=C(c3ccc(N)cc3)C(=O)NC2=O)c2ccccc21 ?
Result: inactive

----------
# System: HCT-116 colon
# Assay explanation: NCI tumour cell line growth inhibition, 48 h
Quick reference: TGI of the listed items.
Kindly answer with a numeric value in µM, unit omitted.

Solved cases (2 shown):
- CCCCC#CC1=C(Br)C(=O)OC1: 0.327
- CN1C(=O)c2ccccc2OC12C=Cc1c(ccc3ccccc13)O2 (stereo not given): 14.2

Ask: Consider the compound NC(N)=NS(=O)(=O)c1ccc(NNc2c3ccccc3nc3c(C(=O)Nc4ccc(S(=O)(=O)Nc5ncccn5)cc4)cccc23)cc1 . State its measured TGI.
Result: 78.1

Ask: Consider the compound COc1cccc(CC(C)=C(c2ccc(OCCN(C)C)cc2)c2ccc(OCCN(C)C)cc2)c1 . State its measured TGI.
Result: 1.5

Ask: Consider the compound CCOC(=O)C(C#N)C1=CC(=O)C(=O)c2ccc(OC)cc21 (stereo not given) . State its measured TGI.
Result: 44.8

----------
# Test system: MOLT-4 leukemia
# Assay explanation: NCI tumour cell line growth inhibition, 48 h
Value type: TGI (µM)
Kindly answer with a numeric value in µM, unit omitted.

- O=C1C=CC(=O)c2c1ccc1c3ccccc3n(CCCCCn3c4ccccc4c4ccc5c(c43)C(=O)C=CC5=O)c21: 5.11

Ask: Consider the compound Fc1ccc2c(c1)nc1n2C(c2c(Cl)cccc2Cl)SC1 (stereo not given) . State its measured TGI.
Result: 52.5

Ask: Consider the compound CO/N=C(\C)c1ccc(Nc2nc3ccccc3c3occc23)cc1 . State its measured TGI.
Result: 53.1

Ask: Consider the compound CC1=NN(c2nc(N)nc(/C(C#N)=C\c3ccc([N+](=O)[O-])s3)n2)C(C)(C)C1 . State its measured TGI.
Result: 0.379

----------
Quick reference: TGI of the listed items.
# System: RPMI-8226 leukemia
# Assay explanation: NCI tumour cell line growth inhibition, 48 h

• O=C(O)c1nnsc1-c1ccc(-c2snnc2C(=O)O)cc1 = 68.6 µM
• COC(=O)COc1ccccc1/C=C1\N=C(c2ccccc2)N(c2cc(C(F)(F)F)ccc2Cl)C1=O = 72.7 µM
• CC1(C)/C(=N\NC(N)=O)C2CCC1C2 (stereo unspecified) = > 100 µM

Ask: Consider the compound COC(=O)/C=C(\C(=O)OC)C1C(=O)Oc2c(C)c(=O)c3ccccc3n21 (stereo unspecified) . State its measured TGI.
Result: > 100 µM

Ask: Consider the compound Cc1c(C)c2c(c(N)c1C#N)C(=O)N(NC(=O)c1ccccc1)C2=O . State its measured TGI.
Result: > 100 µM

Ask: Consider the compound S=C(Nc1ccc(Cl)cc1)Nc1ccc(-c2nc3ccccc3s2)cc1 . State its measured TGI.
Result: 64.5 µM

Ask: Consider the compound CCOC(=O)C1=CN(C)C=C(C(=O)OCC)C1c1cc(Br)c(OCC)c(OC)c1 . State its measured TGI.
Result: > 100 µM

Ask: Consider the compound CSc1nc(=O)n(CCC#N)nc1SC . State its measured TGI.
Result: 98.4 µM

Ask: Consider the compound CN1CCc2c([nH]c3ccccc23)C1 . State its measured TGI.
Result: > 100 µM

Ask: Consider the compound Cc1cc(Nc2ccc(NC(=O)c3ccc(Nc4ccnc5ccccc45)cc3)cc2)nc(N)n1 . State its measured TGI.
Result: > 100 µM

Ask: Consider the compound CCn1c(-c2ccccc2)cs/c1=N\C(P(=O)(O)O)P(=O)(O)O . State its measured TGI.
Result: > 100 µM
